Data credit: the RNAGym collection of RNA variant scans (doi:10.1126/science.aae0568)

B1: tRNA (parent)
chain: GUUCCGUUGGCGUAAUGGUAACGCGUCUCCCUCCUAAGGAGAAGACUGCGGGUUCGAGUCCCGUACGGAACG

# Variants of: B1
# method.summary: yeast fitness relative to wild type (ratio to wild type); higher = fitter; tRNA-Arg(CCU), competitive growth, 37 C, YPD
Fewer inactive variants are shown than the library holds.
Threshold check on yeast fitness: at or above 0.7 gives 1, strictly below gives -1.

| mutation.name | category |
| --- | --- |
| U8A C27A G68C | -1 |
| U7A G41C U54A | -1 |
| G10U U13A | -1 |
| C29A A57U | -1 |
| U28C A42U A69U | 1 |
| C11G U54C | -1 |
